Endpoint label: melting point (°C)
Write down the numeric answer in °C and omit the unit.

Could you tell me which melting point is on file for O=Cc1ccccc1[N+](=O)[O-] [2-nitrobenzaldehyde] ?
45

Could you tell me which melting point is on file for CCc1ccccc1O [2-Ethylphenol] ?
-28

Could you tell me which melting point is on file for CC(=O)[C@H]1C[C@@H](CC(=O)O)C1(C)C [[(1S,3S)-3-Acetyl-2,2-dimethylcyclobutyl]acetic acid] ?
67.8

Could you tell me which melting point is on file for Cc1ccc(B(O)O)cc1N [3-amino-4-methylbenzeneboronic acid] ?
250

Could you tell me which melting point is on file for O=C(O)c1ccnc(F)c1 [2-fluoropyridine-4-carboxylic acid] ?
346

Could you tell me which melting point is on file for CC(=O)Br [acetyl bromide] ?
-96

Could you tell me which melting point is on file for CC(C)(C)OC(=O)Nc1ccccc1B(O)O [2-(boc-amino)benzeneboronic acid] ?
124

Could you tell me which melting point is on file for C[C@@H]1CC=CC=CC=CC=C[C@H](OC2O[C@H](C)[C@@H](O)[C@H](N)[C@@H]2O)C[C@@H]2O[C@](O)(C[C@@H](O)C[C@H]3O[C@@H]3C=CC(=O)O1)C[C@H](O)[C@H]2C(=O)O (stereo not given in full) [Natamycin] ?
290

Could you tell me which melting point is on file for ClB(Cl)c1ccccc1 [dichlorophenylborane] ?
7

Could you tell me which melting point is on file for Brc1cnc2ccccc2c1 [3-bromoquinoline] ?
14

Could you tell me which melting point is on file for CCCN(CCC)S(=O)(=O)c1ccc(C(=O)O)cc1 [probenecid] ?
198

Could you tell me which melting point is on file for Cc1ccc([N+](=O)[O-])cc1 [4-nitrotoluene] ?
52

Could you tell me which melting point is on file for NC(=O)c1ccccc1O [salicylamide] ?
140

Could you tell me which melting point is on file for Cc1ccc(C#N)cc1 [p-tolunitrile] ?
28

Could you tell me which melting point is on file for CCCC1COC(c2ccc(C#N)cc2)OC1 (stereo not given) [2-(4-cyanophenyl)-5-n-propyl-1,3-dioxane] ?
58

Could you tell me which melting point is on file for CNC(=O)c1ccc(-c2ccccc2)cc1 [p-phenyl-n-methylbenzamide] ?
86

Could you tell me which melting point is on file for Cc1c(N)cccc1Cl [3-chloro-2-methylaniline] ?
2

Could you tell me which melting point is on file for CC(C)[C@H](NC(=O)OC(C)(C)C)C(=O)O [N-boc-L-valine] ?
79

Could you tell me which melting point is on file for CCC(C)(C)Cl [2-Chloro-2-methylbutane] ?
-73

Could you tell me which melting point is on file for N#CCS(=O)(=O)c1ccccc1 [phenylsulfonylacetonitrile] ?
112

====

Binary call on melting point: 1 from 60 °C upward, -1 beneath that.

Check if melting point >= 60 °C (inclusive). Item: "Fc1ccc(Br)nc1"
-1

Check if melting point >= 60 °C (inclusive). Item: "NCCC(=O)O"
1

Check if melting point >= 60 °C (inclusive). Item: CCC(C)c1ccccc1O (configuration not stated)
-1

Check if melting point >= 60 °C (inclusive). Item: COc1ccccc1 [Anisole]
-1

Check if melting point >= 60 °C (inclusive). Item: NNC(=O)c1ccc(N)cc1 [4-aminobenzhydrazide]
1

Check if melting point >= 60 °C (inclusive). Item: "COc1ccc(N/N=C(\C#N)c2nc(-c3ccccc3)cs2)cc1"
1

Check if melting point >= 60 °C (inclusive). Item: "Nc1cc(Br)ccc1Br"
-1

Check if melting point >= 60 °C (inclusive). Item: "COc1ccc(N/N=C2/C(=O)N(CO)N=C2C(F)(F)F)cc1"
1

Check if melting point >= 60 °C (inclusive). Item: O=S(c1ccccc1)c1ccccc1 [diphenyl sulfoxide]
1

Check if melting point >= 60 °C (inclusive). Item: "[SiH3][SiH3]"
-1

Check if melting point >= 60 °C (inclusive). Item: "Clc1ccc(-c2ccc(Cl)cc2)cc1"
1

====

Endpoint label: melting point (°C)
Write down the numeric answer in °C and omit the unit.

Could you tell me which melting point is on file for CC(=O)Nc1ccccc1 [acetanilide] ?
115

Could you tell me which melting point is on file for COC(=O)NN [methyl carbazate] ?
72

Could you tell me which melting point is on file for CCC1(c2ccccc2)C(=O)NC(=O)N(C)C1=O (stereo unspecified) [Methylphenobarbital] ?
176

Could you tell me which melting point is on file for O=C1C2CC3=C(CC=CC3)CC2C(=O)C2CC3=C(CC=CC3)CC12 (stereo unspecified) ?
227

Could you tell me which melting point is on file for CC(C)CC(N)C(=O)O (stereo in doubt) [D-Leucine] ?
293

Could you tell me which melting point is on file for CCCCCCCCCCCCc1ccccc1 [N-dodecylbenzene] ?
-7

Could you tell me which melting point is on file for Ic1ccc(-c2ccccc2)cc1 [4-iodobiphenyl] ?
114

Could you tell me which melting point is on file for Clc1cc(Cl)c(I)c(Cl)c1 [1,3,5-trichloro-2-iodobenzene] ?
55

Could you tell me which melting point is on file for CCCCCI [1-iodopentane] ?
-86

Could you tell me which melting point is on file for OB(O)c1cccnc1Cl [2-chloropyridine-3-boronic acid] ?
160

Could you tell me which melting point is on file for O=C1c2ccccc2C(=O)N1CCCCCCBr [N-(6-bromohexyl)phthalimide] ?
57

Could you tell me which melting point is on file for O=c1[nH]c2ccc([N+](=O)[O-])cc2o1 [6-nitro-2(3h)-benzoxazolone] ?
246

Could you tell me which melting point is on file for Cc1cc(=O)n(-c2ccccc2)n1C [antipyrine] ?
112

Could you tell me which melting point is on file for CN(C)c1ccc(N)cc1 [N,N-dimethyl-p-phenylenediamine] ?
36

Could you tell me which melting point is on file for [2H]c1c([2H])c2c([2H])c([2H])c3c([2H])c([2H])c([2H])c4c([2H])c([2H])c(c1[2H])c2c34 [(~2~H_10_)Pyrene] ?
156

Could you tell me which melting point is on file for CC(=O)Nc1ccc2c(c1)NC(=O)C2 [N-(2-oxo-2,3-dihydro-1H-indol-6-yl)acetamide] ?
335

Could you tell me which melting point is on file for c1ccc(CN(Cc2ccccc2)c2ccccc2)cc1 [N,N-dibenzylaniline] ?
70

Could you tell me which melting point is on file for NS(=O)(=O)c1cc2c(cc1C(F)(F)F)NCNS2(=O)=O [hydroflumethiazide] ?
272

Could you tell me which melting point is on file for C=Cc1ccccc1C [2-methylstyrene] ?
-69

Could you tell me which melting point is on file for CC1=CC(=O)c2ccccc2C1=O [Menadione] ?
102

Could you tell me which melting point is on file for C=C(C)C(=C)C [2,3-dimethyl-1,3-butadiene] ?
-76

====

Record form. Attribute: melting point. Fill in for each entry.
Write down the numeric answer in °C and omit the unit.

Could you tell me which melting point is on file for CC(C)C(O)C(C)(C)CO (centres undefined) [2,2,4-trimethyl-1,3-pentanediol] ?
52

Could you tell me which melting point is on file for O=C(O)c1cc(Cl)cc(Cl)c1O [3,5-dichlorosalicylic acid] ?
224

Could you tell me which melting point is on file for CCN(CC)C(=O)Nc1ccc(OCC(O)CNC(C)(C)C)c(C(C)=O)c1 (centres undefined) [celiprolol] ?
110

Could you tell me which melting point is on file for CCOc1ccc([N+](=O)[O-])cc1Br [2-bromo-4-nitrophenetole] ?
55

Could you tell me which melting point is on file for O=S(=O)(Cl)c1ccc(Br)cc1C(F)(F)F [4-bromo-2-(trifluoromethyl)benzenesulfonyl chloride] ?
56

Could you tell me which melting point is on file for CCCCN1CCCCC1C(=O)Nc1c(C)cccc1C (centres undefined) [bupivacaine] ?
107

Could you tell me which melting point is on file for CC(C)CCCC(C)C1CCC2C3CCC45CCC(=O)C4C5(C)C3CCC12C (centres undefined) [1,5-cyclocholestan-2-one] ?
164

Could you tell me which melting point is on file for CNCCO [2-(Methylamino)ethanol] ?
-4.5

Could you tell me which melting point is on file for COc1ccc(/C=C/c2ccccc2)cc1 [4-methoxystilbene] ?
137

====

Record form. Attribute: melting point. Fill in for each entry.
Write down the numeric answer in °C and omit the unit.

Could you tell me which melting point is on file for "Cc1cn([C@H]2C[C@H](O)[C@@H](CO)O2)c(=O)[nH]c1=O" ?
188

Could you tell me which melting point is on file for "CCCCCCCCCCCCCCCCCCCCC" ?
41

Could you tell me which melting point is on file for CCCCCOc1ccc(/N=N/c2ccc(CCCC)cc2)cc1 [(E)-1-(4-butylphenyl)-2-[4-(pentyloxy)phenyl]diazene] ?
42

Could you tell me which melting point is on file for CCOC(=O)c1ccc(OC)c(OC)c1 [ethyl 3,4-dimethoxybenzoate] ?
44

Could you tell me which melting point is on file for "CC(=O)OCC(CCn1cnc2cnc(N)nc21)COC(C)=O" ?
103

Could you tell me which melting point is on file for "BrCCCBr" ?
-34

Could you tell me which melting point is on file for "Cc1c(C)c(C)c(Br)c(C)c1C" ?
162

Could you tell me which melting point is on file for Oc1ccc(-c2ccccc2)cc1 [Biphenyl-4-ol] ?
167

Could you tell me which melting point is on file for "N=C(N)Nc1nc(CSCCC(=N)NS(N)(=O)=O)cs1" ?
164

Could you tell me which melting point is on file for "O=P(O)(O)O" ?
20

Could you tell me which melting point is on file for "COc1ccc(-c2csc(/C(C#N)=N/Nc3cc(C)ccc3C)n2)cc1" ?
156

Could you tell me which melting point is on file for "NC(=O)C[C@H](N)C(=O)O" ?
235

Could you tell me which melting point is on file for "COP(=S)(OC)Oc1cc(Cl)c(Cl)cc1Cl" ?
38

Could you tell me which melting point is on file for CCc1ccccc1O [2-ethylphenol] ?
-18

Could you tell me which melting point is on file for "CC1=CCCC1" ?
-142

Could you tell me which melting point is on file for "Cc1ccc(C)c(Br)c1" ?
10

Could you tell me which melting point is on file for CCCCCCCCCCCCSCCCCCCCCCCCC [di-n-dodecyl sulfide] ?
40

Could you tell me which melting point is on file for CCC(=O)O[C@]1(C(=O)SCF)[C@H](C)C[C@H]2[C@@H]3C[C@H](F)C4=CC(=O)C=C[C@]4(C)[C@@]3(F)[C@@H](O)C[C@@]21C [Fluticasone Propionate] ?
272

Could you tell me which melting point is on file for "c1ccc(B(c2ccccc2)c2ccccc2)cc1" ?
147

Could you tell me which melting point is on file for CN(C)C(=S)SSC(=S)N(C)C [tetramethylthiuram disulfide] ?
150

Could you tell me which melting point is on file for NNC(=O)c1ccc([N+](=O)[O-])o1 [5-nitro-2-furohydrazide] ?
171
